Each entry below carries its measured IC50, system: hFAP (Homo sapiens (Human), UniProt Q12884).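 Note: fluorescence read after incubating enzyme with substrate at room temperature, IC50 fitted from percent inhibition against log concentration with a one-site model.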
Sequence (Q12884 38-760): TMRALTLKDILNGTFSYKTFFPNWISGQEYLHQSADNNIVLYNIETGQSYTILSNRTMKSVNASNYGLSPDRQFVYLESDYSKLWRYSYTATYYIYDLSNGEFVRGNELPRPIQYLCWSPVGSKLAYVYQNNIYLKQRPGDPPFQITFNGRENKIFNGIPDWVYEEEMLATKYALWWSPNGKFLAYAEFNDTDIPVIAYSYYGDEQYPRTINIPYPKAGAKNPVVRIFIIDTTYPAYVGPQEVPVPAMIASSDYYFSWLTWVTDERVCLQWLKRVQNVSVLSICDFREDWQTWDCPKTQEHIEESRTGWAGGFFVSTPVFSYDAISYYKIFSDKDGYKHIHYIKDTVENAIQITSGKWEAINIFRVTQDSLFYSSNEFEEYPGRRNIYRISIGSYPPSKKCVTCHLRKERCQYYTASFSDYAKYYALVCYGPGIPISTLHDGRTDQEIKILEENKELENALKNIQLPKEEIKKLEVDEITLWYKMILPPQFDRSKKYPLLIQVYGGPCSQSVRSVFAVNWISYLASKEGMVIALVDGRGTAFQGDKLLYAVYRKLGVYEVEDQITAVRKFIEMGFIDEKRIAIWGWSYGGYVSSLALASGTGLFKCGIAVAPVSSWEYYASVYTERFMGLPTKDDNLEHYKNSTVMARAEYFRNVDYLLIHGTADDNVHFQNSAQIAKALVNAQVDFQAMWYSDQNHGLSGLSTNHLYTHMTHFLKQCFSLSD
assay metric: IC50 (nM)

Some compounds with known IC50 results, for comparison:
compound: N#C[C@@H]1C[C@@H]2C[C@@H]2N1C(=O)CNC(=O)c1ccnc2ccc(OC3CCC(F)(F)CC3)cc12
unit name: nM
endpoint value: 1.3
--
compound: N#C[C@@H]1C[C@@H]2C[C@@H]2N1C(=O)CNC(=O)c1ccnc2ccc(COC(F)(F)F)cc12
unit name: nM
endpoint value: 1.7

P = CC(C)(O)c1ccc2c(C(=O)NCC(=O)N3[C@H](C#N)C[C@@H]4C[C@@H]43)ccnc2c1
Q = COc1ccc2c(C(=O)NCC(=O)N3[C@H](C#N)C[C@@H]4C[C@@H]43)cc(C)nc2c1
R = N#C[C@@H]1C[C@@H]2C[C@@H]2N1C(=O)CNC(=O)c1ccnc2ccc(C(F)(F)F)cc12
Order the records by IC50, with each subsequent value no larger than the one before. Dear reader, please state the labels in the requested order.
Q, R, P

A = CC(O)c1ccc2nccc(C(=O)NCC(=O)N3[C@H](C#N)C[C@@H]4C[C@@H]43)c2c1 (some centres unmarked)
B = N#C[C@@H]1C[C@@H]2C[C@@H]2N1C(=O)CNC(=O)c1ccnc2cc(Br)ccc12
C = COC(C)(C)c1ccc2c(C(=O)NCC(=O)N3[C@H](C#N)C[C@@H]4C[C@@H]43)ccnc2c1
D = N#C[C@@H]1C[C@@H]2C[C@@H]2N1C(=O)CNC(=O)c1ccnc2ccc(C3(C#N)CC3)cc12
E = Cc1cc(C(=O)NCC(=O)N2[C@H](C#N)C[C@@H]3C[C@@H]32)c2cc(Cl)ccc2n1
Number of compounds to sort: 5. Sort criterion: IC50, ascending. Dear reader, please state the labels in the requested order.
B, D, A, C, E
(B: 0.68 nM, D: 1.7 nM, A: 2.6 nM, C: 4.6 nM, E: 65 nM)

----------
method: Kinetic solubility
Format: physicochemical
stated conditions: kinetic from dmso stock
Procedure: Kinetic solubility was measured as described in Comput Aided Mol Des 2015, 29, 795.
Attribute: solubility

Some molecules with known solubility results, for comparison:
molecule: Cc1ccc2c(C(=O)NCC(=O)N3[C@H](C#N)C[C@@H]4C[C@@H]43)ccnc2c1
solubility: > 1000 µM
--
molecule: Cc1ccc2nc(C)cc(C(=O)NCC(=O)N3[C@H](C#N)C[C@@H]4C[C@@H]43)c2c1
solubility: > 1000 µM
--
molecule: CC(C)(O)c1ccc2c(C(=O)NCC(=O)N3[C@H](C#N)C[C@@H]4C[C@@H]43)ccnc2c1
solubility: > 1000 µM
--
molecule: CC1(c2ccc3nccc(C(=O)NCC(=O)N4[C@H](C#N)C[C@@H]5C[C@@H]54)c3c2)CC1
solubility: 820 µM

# solubility of COC(C)c1ccc2c(C(=O)NCC(=O)N3[C@H](C#N)C[C@@H]4C[C@@H]43)ccnc2c1 (stereo partly drawn) = > 1000 µM

# solubility of N#C[C@@H]1C[C@@H]2C[C@@H]2N1C(=O)CNC(=O)c1ccnc2cc(C3CC3)ccc12 = 810 µM

----------
method: Metabolic stability in human liver microsomes (HLM)
Format: in vitro ADME
Attribute: microsomal CLint

# microsomal CLint of CC(O)c1ccc2c(C(=O)NCC(=O)N3[C@H](C#N)C[C@@H]4C[C@@H]43)ccnc2c1 (stereo partly drawn) [Example 25] = < 3 µL/min/mg

# microsomal CLint of N#C[C@@H]1C[C@@H]2C[C@@H]2N1C(=O)CNC(=O)c1ccnc2ccc(CF)cc12 [Example 11] = < 3 µL/min/mg

# microsomal CLint of N#C[C@@H]1C[C@@H]2C[C@@H]2N1C(=O)CNC(=O)c1ccnc2cc(Br)ccc12 [Example 3] = < 3 µL/min/mg
